Source listed as patent US20240294534A1.

# TARGET DESC: IL-17A (Homo sapiens, UniProt Q16552)
# ASSAY SUMMARY: Inhibition of IL-17A induced IL-6 release from dermal fibroblast cell line (HDF cell line assay)
# CONDITIONS: human dermal fibroblasts stimulated with IL-17A (50 pM) + TNF-α (25 pM); IL-6 measured by HTRF; pIC50 = -log10[IC50], IC50 molar
ENDPOINT: pIC50
Kindly note that pIC50 refers to -log10 of the concentration in mol/L and answer with the value alone.

[[record]]
compound = "CC(C)n1ncnc1C(=O)N[C@H](c1cn2ncc([C@H]3C[C@@H](O)CCN3C(=O)[C@@H]3CCC(F)(F)CO3)nc2n1)C1CCC(F)(F)CC1 (single isomer, unassigned) [Example 51]"
endpoint = "pIC50"
observed_result = 6.60


**Query** Data request, read-out pIC50, for Cn1nccc1C(=O)N[C@H](c1cn2ncc([C@H]3C[C@](O)(C(F)F)CCN3C(=O)[C@@H]3CCC(F)(F)CO3)nc2n1)C1CCC(F)(F)CC1 (single isomer, unassigned) [Example 47]
**Result** 6.20

**Query** Value lookup for pIC50; key = Cc1nonc1C(=O)NC(c1cn2ncc(C3COCCN3C(=O)C3CCC(F)(F)CO3)nc2n1)C1CCC(F)(F)CC1 (single isomer, unassigned) [Example 8]
**Result** 6.90

---

# TARGET DESC: UniProtKB Q16552
# ASSAY SUMMARY: Inhibition of IL-17A induced IL-6 release from dermal fibroblast cell line (HDF cell line assay)
# Assay type: cell-based
# CONDITIONS: human dermal fibroblasts stimulated with IL-17A (50 pM) + TNF-α (25 pM); IL-6 measured by HTRF; pIC50 = -log10[IC50], IC50 molar
ENDPOINT: IC50 (nM)
# number only, unit nM dropped from output

The following compounds have reported results that may help.
[[record]]
compound = "O=C(N[C@H](c1cn2ncc([C@@H]3C[C@@](O)(C(F)(F)F)CCN3C(=O)C34CC(F)(C3)C4)nc2n1)C1CCC(F)(F)CC1)C1(F)CC1 (single isomer, unassigned)"
observed_result = 50.1

[[record]]
compound = "Cc1nonc1C(=O)N[C@H](c1cn2ncc([C@H]3C[C@](O)(C(F)(F)F)CCN3C(=O)C34CC(F)(C3)C4)nc2n1)C(C1CC1)C1CC1 (single isomer, unassigned)"
observed_result = 158

[[record]]
compound = "Cc1nonc1C(=O)N[C@H](c1cn2ncc([C@@H]3C[C@@](O)(C(F)(F)F)CCN3C(=O)[C@@H]3CCC(F)(F)CO3)nc2n1)C1CCC(F)(F)CC1 (single isomer, unassigned)"
observed_result = 2.51

[[record]]
compound = "O=C(N[C@H](c1cn2ncc(C3CS(=O)(=O)CCN3C(=O)C34CC(F)(C3)C4)nc2n1)[C@H]1CC[C@H](C(F)(F)F)CC1)OCc1ccccc1 (some centres unmarked)"
observed_result = 50.1


The record that follows has no IC50 shown yet.
**Query** Tell me the measured IC50 of Cc1nonc1C(=O)N[C@H](c1cn2ncc([C@@H]3COCCN3C(=O)[C@@H]3CCC(F)(F)CO3)nc2n1)C(C1CC1)C1CC1 (single isomer, unassigned) , please.
**Result** 3.98

---

Catalogue of IC50 values
# TARGET DESC: IL-17A (Homo sapiens)
# ASSAY SUMMARY: Inhibition of IL-17A induced IL-6 release from dermal fibroblast cell line (HDF cell line assay)
# CONDITIONS: human dermal fibroblasts stimulated with IL-17A (50 pM) + TNF-α (25 pM); IL-6 measured by HTRF; pIC50 = -log10[IC50], IC50 molar
Remember to quote the unit after the number.

Example entries begin here.
[[record]]
compound = "Cc1nonc1C(=O)N[C@H](c1cn2ncc([C@@H]3COCCN3C(=O)C34CC(F)(C3)C4)nc2n1)C1CCC(F)(F)CC1 (single isomer, unassigned)"
target_desc = "IL-17A (Homo sapiens)"
observed_result = "79.4 nM"

[[record]]
compound = "Cc1nonc1C(=O)N[C@H](c1cn2ncc([C@H]3C[C@@H](O)CCN3C(=O)[C@@H]3CCC(F)(F)CO3)nc2n1)C1CCC(F)(F)CC1 (single isomer, unassigned)"
target_desc = "IL-17A (Homo sapiens)"
observed_result = "25.1 nM"

[[record]]
compound = "O=C(N[C@H](c1cn2ncc([C@H]3C[C@](O)(C(F)(F)F)CCN3C(=O)C34CC(F)(C3)C4)nc2n1)C1CCC(F)(F)CC1)C1(F)CC1 (single isomer, unassigned)"
target_desc = "IL-17A (Homo sapiens)"
observed_result = "7940 nM"

[[record]]
compound = "Cn1nccc1C(=O)N[C@H](c1cn2ncc([C@@H]3C[C@@](O)(C(F)F)CCN3C(=O)[C@@H]3CCC(F)(F)CO3)nc2n1)C1CCC(F)(F)CC1 (single isomer, unassigned)"
target_desc = "IL-17A (Homo sapiens)"
observed_result = "12.6 nM"


Okay, now this compound:
**Query** Report IC50 for Cc1nonc1C(=O)N[C@H](c1cn2ncc([C@H]3C[C@](O)(C(F)(F)F)CCN3C(=O)[C@@H]3CCC(F)(F)CO3)nc2n1)C1CCC(F)(F)CC1 (single isomer, unassigned) please.
**Result** 100 nM

---

# TARGET DESC: UniProtKB Q16552
# Sequence (Q16552 24-155): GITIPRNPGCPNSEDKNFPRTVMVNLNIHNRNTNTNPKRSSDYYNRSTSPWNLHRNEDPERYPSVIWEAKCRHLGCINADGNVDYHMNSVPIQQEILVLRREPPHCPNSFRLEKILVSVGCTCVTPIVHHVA
# ASSAY SUMMARY: Inhibition of IL-17A induced IL-6 release from dermal fibroblast cell line (HDF cell line assay)
# Format: cell-based
# CONDITIONS: human dermal fibroblasts stimulated with IL-17A (50 pM) + TNF-α (25 pM); IL-6 measured by HTRF; pIC50 = -log10[IC50], IC50 molar
// reported pIC50 per item
Entry type: numeric. Quantity: pIC50, the -log10 of concentration in molar units.

[[record]]
molecule = "Cc1nonc1C(=O)N[C@H](c1cn2ncc([C@H]3C[C@@](O)(C(F)(F)F)CCN3C(=O)C34CC(F)(C3)C4)nc2n1)C1CCC(F)(F)CC1 (single isomer, unassigned) [Example 33]"
target_desc = "UniProtKB Q16552"
observed_result = 6.90

[[record]]
molecule = "Cc1nonc1C(=O)N[C@H](c1cn2ncc([C@@H]3C[C@](O)(C(F)(F)F)CCN3C(=O)C34CC(F)(C3)C4)nc2n1)C1CCC(F)(F)CC1 (single isomer, unassigned) [Example 32]"
target_desc = "UniProtKB Q16552"
observed_result = 7.20


Could you now look at the following molecule, please?
**Query** For the record Cc1nonc1C(=O)N[C@H](c1cn2ncc([C@@H]3C[C@@](O)(C(F)(F)F)CCN3C(=O)C34CC(F)(C3)C4)nc2n1)C(C1CC1)C1CC1 (single isomer, unassigned) [Example 1] , what value of pIC50 is listed for UniProtKB Q16552?
**Result** 8.10

---

Recorded pIC50 by entry
# TARGET DESC: IL-17A (Homo sapiens)
# ASSAY SUMMARY: Inhibition of IL-17A induced IL-6 release from dermal fibroblast cell line (HDF cell line assay)
# CONDITIONS: human dermal fibroblasts stimulated with IL-17A (50 pM) + TNF-α (25 pM); IL-6 measured by HTRF; pIC50 = -log10[IC50], IC50 molar
Please report pIC50 as the negative decimal logarithm of the molar concentration, giving only the number.

[[record]]
compound = "CC(C)n1ncnc1C(=O)N[C@H](c1cn2ncc([C@@H]3C[C@@](O)(C(F)F)CCN3C(=O)[C@@H]3CCC(F)(F)CO3)nc2n1)C1CCC(F)(F)CC1 (single isomer, unassigned) [Example 48]"
target_desc = "IL-17A (Homo sapiens)"
observed_result = 8.20


**Query** What pIC50 appears in the records for this compound with IL-17A (Homo sapiens)? CC(C)n1nccc1C(=O)N[C@H](c1cn2ncc(C3(C(=O)NCC(C)(F)F)CCC(F)(F)CC3)nc2n1)C1CCC(F)(F)CC1 [Example 16]
**Result** 7.90

**Query** What value of pIC50 on IL-17A (Homo sapiens) does Cc1nonc1C(=O)N[C@H](c1cn2ncc([C@@H]3C[C@@](O)(C(F)F)CCN3C(=O)[C@@H]3CCC(F)(F)CO3)nc2n1)C1CCC(F)(F)CC1 (single isomer, unassigned) [Example 22] have?
**Result** 8.20

**Query** For the record O=C([C@@H]1CCC(F)(F)CO1)N1CC[C@@](O)(C(F)(F)F)C[C@@H]1c1cnn2cc([C@@H](NC(=O)C3(F)CC3)C3CCC(F)(F)CC3)nc2n1 (single isomer, unassigned) [Example 21] , what value of pIC50 is listed for IL-17A (Homo sapiens)?
**Result** 6.40

**Query** Test system IL-17A (Homo sapiens); read-out pIC50; what value for Cc1nonc1C(=O)N[C@H](c1cn2ncc(C3(C(=O)NCC(C)(F)F)CCN(C4COC4)CC3)nc2n1)C1CCC(F)(F)CC1 [Example 56] ?
**Result** 7.80
